The molecules listed here are annotated with their mortality at 20 mg/kg.
# System: Mythimna separata
# MEASUREMENT_NOTES: Insecticidal activity against Mythimna separata (Oriental armyworm) fourth-instar larvae infested compound pre-treated corn leaves assessed as insect mortality at 20 mg/kg measured 2 days post compound treatment
# Type: functional

// below: answered molecules
N#Cc1c(Br)c(C(F)(F)F)n(COC(=O)C(=O)Nc2ccccc2)c1-c1ccc(Cl)cc1 : 100%
CCCCNC(=O)C(=O)OCn1c(-c2ccc(Cl)cc2)c(C#N)c(Br)c1C(F)(F)F : 100%

Recorded result, COCCOC(=O)C(=O)OCn1c(-c2ccc(Cl)cc2)c(C#N)c(Br)c1C(F)(F)F , mortality at 20 mg/kg: 100%

Recorded result, CC(C)OC(=O)C(=O)OCn1c(-c2ccc(Cl)cc2)c(C#N)c(Br)c1C(F)(F)F , mortality at 20 mg/kg: 100%

Recorded result, N#Cc1c(Br)c(C(F)(F)F)n(COC(=O)C(=O)OCC(F)(F)F)c1-c1ccc(Cl)cc1 , mortality at 20 mg/kg: 70%

---

The molecules listed here are annotated with their mortality at 200 mg/kg.
# Test system: Tetranychus cinnabarinus
# MEASUREMENT_NOTES: Insecticidal activity against Tetranychus cinnabarinus (carmine spider mite) infested on Sieva bean plants leaves exposed to compound formulation at 200 mg/kg assessed as insect mortality measured 2 days post compound treatment
# Assay type: functional
# PARTICULARS: 48 h
Give your result in % as a bare value.

Recorded result, CCOCn1c(-c2ccc(Cl)cc2)c(C#N)c(Br)c1C(F)(F)F , mortality at 200 mg/kg: 100

Recorded result, N#Cc1c(Br)c(C(F)(F)F)n(COC(=O)C(=O)NC2CCCCC2)c1-c1ccc(Cl)cc1 , mortality at 200 mg/kg: 76

Recorded result, CC(C)NC(=O)C(=O)OCn1c(-c2ccc(Cl)cc2)c(C#N)c(Br)c1C(F)(F)F , mortality at 200 mg/kg: 100

---

The compounds listed here are annotated with their mortality at 200 mg/kg.
# Tested on: Tetranychus cinnabarinus
# MEASUREMENT_NOTES: Insecticidal activity against Tetranychus cinnabarinus (carmine spider mite) infested on Sieva bean plants leaves exposed to compound formulation at 200 mg/kg assessed as insect mortality measured 2 days post compound treatment
# Assay type: functional
# PARTICULARS: 48 h
Give your result in % as a bare value.

// below: answered compounds
CCCOC(=O)C(=O)OCn1c(-c2ccc(Cl)cc2)c(C#N)c(Br)c1C(F)(F)F : 100
Cc1ccc(NC(=O)C(=O)OCn2c(-c3ccc(Cl)cc3)c(C#N)c(Br)c2C(F)(F)F)cc1 : 96
C/C=C/NC(=O)C(=O)OCn1c(-c2ccc(Cl)cc2)c(C#N)c(Br)c1C(F)(F)F : 96
CC(C)COC(=O)C(=O)OCn1c(-c2ccc(Cl)cc2)c(C#N)c(Br)c1C(F)(F)F : 100
CCCCNC(=O)C(=O)OCn1c(-c2ccc(Cl)cc2)c(C#N)c(Br)c1C(F)(F)F : 48
N#Cc1c(Br)c(C(F)(F)F)n(COC(=O)C(=O)OCCF)c1-c1ccc(Cl)cc1 : 100
N#Cc1c(Br)c(C(F)(F)F)n(COC(=O)C(=O)OCC(F)(F)F)c1-c1ccc(Cl)cc1 : 100
CC(C)OC(=O)C(=O)OCn1c(-c2ccc(Cl)cc2)c(C#N)c(Br)c1C(F)(F)F : 100

Recorded result, N#Cc1c(Br)c(C(F)(F)F)n(COC(=O)C(=O)Nc2ccc(Cl)cc2)c1-c1ccc(Cl)cc1 , mortality at 200 mg/kg: 100

Each recorded value in this set is attributed to ChEMBL document CHEMBL3046536.
